List of CC50 at 72 h values.
testMethodNotes: Cytotoxicity in RAW 264.7 cells (alamarBlue, 72 h)
conditionDescription: mouse, RAW 264.7 macrophage cells
observable: CC50 at 72 h (µM)

[[record]]
compound = "COc1ccc2cc3[n+](cc2c1OC)CCc1cc2c(cc1-3)OCO2"
u = "µM"
valuecomparator = ">"
experimentalresult = 20

[[record]]
compound = "CN1C(=O)/C(=C2/C(=O)Nc3ccccc32)c2ccccc21"
u = "µM"
valuecomparator = "="
experimentalresult = 14.9

[[record]]
compound = "COc1ccc2c(c1OC)CN(C)c1c-2ccc2cc3c(cc12)OCO3 [Dihydrochelerythrine]"
u = "µM"
valuecomparator = ">"
experimentalresult = 50

[[record]]
compound = "C[n+]1cc2c3c(ccc2c2ccc4cc5c(cc4c21)OCO5)OCO3"
u = "µM"
valuecomparator = "="
experimentalresult = 1.84

[[record]]
compound = "COc1cc2c(cc1OC)-c1c(C)c3ccc(OC)c(OC)c3c[n+]1CC2 [Dehydrocorydaline]"
u = "µM"
valuecomparator = ">"
experimentalresult = 10

[[record]]
compound = "COc1cc2c[n+](C)c3c4cc5c(cc4ccc3c2cc1OC)OCO5"
u = "µM"
valuecomparator = "="
experimentalresult = 2.01

[[record]]
compound = "COc1cc2c3c(cc4ccccc4c3c1OC)N(C)CC2 [Dehydronuciferine]"
u = "µM"
valuecomparator = "="
experimentalresult = 18.6

